Hi there, I'd appreciate the recorded inhibition at 10 mg/kg for every entry that follows.
Target: 5-HT1A receptors (Rattus norvegicus, UniProt P19327)
Construct: from tissue; host or cells: living male Sprague-Dawley rats (whole animal, behavioural read-out)
Sequence (P19327 whole entry): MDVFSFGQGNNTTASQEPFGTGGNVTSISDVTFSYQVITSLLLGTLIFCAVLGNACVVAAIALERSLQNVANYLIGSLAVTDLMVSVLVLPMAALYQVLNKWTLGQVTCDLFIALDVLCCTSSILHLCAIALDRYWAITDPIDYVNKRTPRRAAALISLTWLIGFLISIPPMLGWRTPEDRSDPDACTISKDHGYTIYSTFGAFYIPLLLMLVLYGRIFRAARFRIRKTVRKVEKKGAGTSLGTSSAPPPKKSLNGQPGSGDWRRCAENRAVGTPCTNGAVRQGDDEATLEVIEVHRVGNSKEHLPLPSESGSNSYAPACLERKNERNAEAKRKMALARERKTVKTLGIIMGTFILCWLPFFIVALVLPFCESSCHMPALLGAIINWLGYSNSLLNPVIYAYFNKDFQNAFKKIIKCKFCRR
Assay: Inhibition of serotonergic syndrome (forepaw treading) induced by 8-OH-DPAT in rats (post-synaptic antagonism)
Type: in vivo
Conditions: rat, 10 mg/kg p.o., 4 h before 8-OH-DPAT 1 mg/kg s.c., read-out: % Inhibition of forepaw treading, 4 h
Method: The inhibitory effect of 5-HT1A-receptor antagonists on stereotyped forepaw treading induced in rats by subcutaneous injection of 8-OH-DPAT was evaluated by the method of Tricklebank (Tricklebank et al., Eur. J. Pharmacol., 117: 15, 1985) with minor modifications as described below. […] The appearance of the symptoms induced by postsynaptic stimulation of 5-HT1A receptors was noted, and the intensity was scored using an intensity scale in which: 0=absent, 1=equivocal, 2=present and 3=intense. […]
Give bare numbers, in %.

| Compound | Measured result |
| --- | --- |
| COc1ccccc1N1CCN(CC[C@@H](c2ccccc2F)[C@H](NC(=S)N(C)C)C2CCCCC2)CC1 (racemic) [Example 24] | 90 |

Hi team, please reply with inhibition at 10 mg/kg for each item in this list.
1. COc1ccccc1N1CCN(CC[C@@H](c2ccccc2F)[C@H](NC(C)=O)C2CCCCC2)CC1 (racemic) [Example 7]
2. COc1ccccc1N1CCN(CC[C@@H](c2ccccc2F)[C@H](NC(=O)N(C)C)C2CCCCC2)CC1 (racemic) [Example 21]

[out]
86
65
